- Tested on: large crabgrass (Digitaria sanguinalis)
- Assay Overview: Test A pre-/postemergence plant response
- Format: in vivo
- Measurement Parameters: Preemergence, 125 g ai/ha; 0 to 100 scale, 0 = no effect, 100 = complete control
# Plant response rating, Crabgrass, Large values compiled below
Endpoint Name: Plant response rating, Crabgrass, Large

>>> result("CCCc1ncc(C(=O)C2=C(O)CCCC2=O)c(=O)n1-c1ccccc1C")
70
>>> result("O=C1CCCC(O)=C1C(=O)c1cnc(-c2ccccc2Cl)n(-c2ccccc2)c1=O")
10
>>> result("Cc1ccc(C)c(-n2c(-c3ccccc3)ncc(C(=O)c3cnoc3C3CC3)c2=O)c1")
20
>>> result("O=C(C1=C(O)C2CCC(C2)C1=O)c1cnc(-c2ccsc2)n(CC2CCCO2)c1=O (stereo not shown)")
80
>>> result("O=C1CCCC(O)=C1C(=O)c1cnc(-c2ccccc2Br)n(-c2ccccc2)c1=O")
10
>>> result("COCCn1c(-c2cccc(C)c2)ncc(C(=O)C2=C(O)C3CCC(C3)C2=O)c1=O (stereo not shown)")
40
>>> result("CCCCn1c(-c2cccc(Br)c2)ncc(C(=O)C2=C(O)CCCC2=O)c1=O")
40
>>> result("O=C1CCCC(O)=C1C(=O)c1cnc(-c2cccs2)n(C2CCCCC2)c1=O")
30
>>> result("Cc1ccc(Cl)cc1-n1c(-c2cccc(Br)c2)ncc(C(=O)C2=C(O)CCCC2=O)c1=O")
10
>>> result("Cc1ccc(Cl)cc1-n1c(-c2cc(F)cc(F)c2)ncc(C(=O)C2=C(O)CCCC2=O)c1=O")
20
>>> result("CCCn1c(-c2cccc(Cl)c2)ncc(C(=O)C2=C(O)CCCC2=O)c1=O")
60
>>> result("Cc1ccccc1-n1c(-c2cccc(Cl)c2)ncc(C(=O)C2=C(O)CCCC2=O)c1=O")
10
>>> result("O=C1CCCC(O)=C1C(=O)c1cnc(-c2ccccc2)n(C2CC[S+]([O-])CC2)c1=O (mixture of isomers)")
30
>>> result("Cc1ccc(F)cc1-n1c(-c2ccccc2)ncc(C(=O)C2=C(O)CCCC2=O)c1=O")
80
>>> result("CCCc1ncc(C(=O)C2=C(O)CCCC2=O)c(=O)n1Cc1cccc(OC(F)(F)F)c1")
30
>>> result("COc1ccc(-n2c(-c3ccccc3)ncc(C(=O)C3=C(O)CCCC3=O)c2=O)cc1OC")
10

----------
- Test system: pigweed (Amaranthus retroflexus)
- Assay Overview: Test A pre-/postemergence plant response
- Type: in vivo
- Measurement Parameters: Postemergence, 125 g ai/ha; visual injury, 0 to 100 scale (0 no effect, 100 complete control), approx. ten days
Endpoint Name: Pigweed plant response rating

>>> result("Cc1ccc(F)cc1-n1c(-c2ccccc2)ncc(C(=O)C2=C(O)CCCC2=O)c1=O [Compound 44]")
100
>>> result("CSc1ncc(C(=O)C2=C(O)CCCC2=O)c(=O)n1-c1ccccc1 [Compound 30]")
70
>>> result("O=C1CCCC(O)=C1C(=O)c1cnc(-c2ccccc2)n(CC2CCCO2)c1=O (stereo not shown) [Compound 59]")
100
>>> result("Cc1ccccc1-n1c(-c2cccc(Cl)c2)ncc(C(=O)C2=C(O)CCCC2=O)c1=O [Compound 36]")
90
>>> result("Cn1c(-c2ccccc2)ncc(C(=O)C2=C(O)CCCC2=O)c1=O [Compound 55]")
90
>>> result("Cc1cc(C)cc(-n2c(-c3ccccc3)ncc(C(=O)C3=C(O)CCCC3=O)c2=O)c1 [Compound 33]")
90
>>> result("O=C1CCCC(O)=C1C(=O)c1cnc(-c2ccccc2)n(-c2cccc(F)c2)c1=O [Compound 22]")
80

----------
- Tested on: lambsquarters (Chenopodium album)
- Assay Overview: Test B pre-/postemergence plant response
- Assay type: in vivo
- Measurement Parameters: Postemergence, 62 g ai/ha; scale 0 to 100 (0 no effect, 100 complete control)
# Plant response rating, Lambsquarters values compiled below
Endpoint Name: Plant response rating, Lambsquarters

>>> result("CCn1c(-c2ccccc2)ncc(C(=O)C2=C(O)C3CCC(C3)C2=O)c1=O (stereo not shown)")
98
>>> result("COc1ccc(-n2c(-c3ccccc3)ncc(C(=O)C3=C(O)CCCC3=O)c2=O)cc1OC")
98
>>> result("CCCn1c(-c2ccsc2)ncc(C(=O)C2=C(O)C3CCC(C3)C2=O)c1=O (stereo not shown)")
98
>>> result("COCCCn1c(-c2cccc(F)c2)ncc(C(=O)C2=C(O)C3CCC(C3)C2=O)c1=O (stereo not shown)")
100
>>> result("O=C(C1=C(O)C2CCC(C2)C1=O)c1cnc(-c2ccsc2)n(CC2CCCO2)c1=O (stereo not shown)")
95
>>> result("CCCCn1c(-c2cc(F)cc(F)c2)ncc(C(=O)C2=C(O)C3CCC(C3)C2=O)c1=O (stereo not shown)")
100
>>> result("CCCCn1c(-c2cccc(F)c2)ncc(C(=O)C2=C(O)C3CCC(C3)C2=O)c1=O (stereo not shown)")
100

----------
- System: large crabgrass (Digitaria sanguinalis)
- Assay Overview: Test B pre-/postemergence plant response
- Format: in vivo
- Measurement Parameters: Postemergence, 250 g ai/ha; scale 0 to 100 (0 no effect, 100 complete control); 13 to 15 days
Endpoint Name: Plant response rating, Crabgrass, Large

>>> result("CCc1ccccc1-n1c(-c2ccccc2)ncc(C(=O)C2=C(O)CCCC2=O)c1=O")
95
>>> result("COCCn1c(-c2cccc(F)c2)ncc(C(=O)C2=C(O)C3CCC(C3)C2=O)c1=O (stereo not drawn)")
100
>>> result("COCCn1c(-c2cccc(C)c2)ncc(C(=O)C2=C(O)C3CCC(C3)C2=O)c1=O (stereo not drawn)")
100
>>> result("O=C(C1=C(O)C2CCC(C2)C1=O)c1cnc(-c2ccsc2)n(CC2CCCO2)c1=O (stereo not drawn)")
90
>>> result("CCCn1c(-c2ccsc2)ncc(C(=O)C2=C(O)C3CCC(C3)C2=O)c1=O (stereo not drawn)")
90
>>> result("COCCCn1c(-c2cccc(Br)c2)ncc(C(=O)C2=C(O)CCCC2=O)c1=O")
90

----------
- Tested on: wild oat (Avena fatua)
- Assay Overview: Test B pre-/postemergence plant response
- Format: in vivo
- Measurement Parameters: Preemergence, 250 g ai/ha; 0 to 100 scale
Endpoint Name: Oat, Wild plant response rating

>>> result("CCCCn1c(-c2cc(F)cc(F)c2)ncc(C(=O)C2=C(O)C3CCC(C3)C2=O)c1=O (stereo not drawn)")
30
>>> result("COCCn1c(-c2cc(F)cc(F)c2)ncc(C(=O)C2=C(O)CCCC2=O)c1=O")
80
>>> result("COc1ccc(-n2c(-c3ccccc3)ncc(C(=O)C3=C(O)CCCC3=O)c2=O)cc1OC")
0
>>> result("COCCn1c(-c2cc(F)cc(F)c2)ncc(C(=O)C2=C(O)C3CCC(C3)C2=O)c1=O (stereo not drawn)")
90
>>> result("CCc1ccc(-n2c(-c3ccccc3)ncc(C(=O)C3=C(O)CCCC3=O)c2=O)cc1")
40
>>> result("CCCn1c(-c2cccs2)ncc(C(=O)C2=C(O)CCCC2=O)c1=O")
0

----------
- Test system: chickweed (Stellaria media)
- Assay Overview: Test B postemergence plant response
- Format: in vivo
- Measurement Parameters: Postemergence, 31 g ai/ha; 0 to 100 scale (0 no effect, 100 complete control)
# Plant response rating, Chickweed values compiled below
Endpoint Name: Plant response rating, Chickweed

>>> result("COCCn1c(-c2cccc(F)c2)ncc(C(=O)C2=C(O)C3CCC(C3)C2=O)c1=O (stereo not shown) [Compound 235]")
98
>>> result("COCCn1c(-c2ccsc2)ncc(C(=O)C2=C(O)C3CCC(C3)C2=O)c1=O (stereo not shown) [Compound 228]")
98
>>> result("CCCCn1c(-c2cc(F)cc(F)c2)ncc(C(=O)C2=C(O)C3CCC(C3)C2=O)c1=O (stereo not shown) [Compound 245]")
80
>>> result("CCCCn1c(-c2cccc(F)c2)ncc(C(=O)C2=C(O)C3CCC(C3)C2=O)c1=O (stereo not shown) [Compound 237]")
90

----------
- Test system: winter barley (Hordeum vulgare)
- Assay Overview: Test B postemergence plant response
- Type: in vivo
- Measurement Parameters: Postemergence, 125 g ai/ha; scale 0 to 100 (0 no effect, 100 complete control)
Plant response rating, Barley under 20 gets 1, anything at or over 20 gets -1.

>>> cat("COCC(C)n1c(-c2ccccc2)ncc(C(=O)C2=C(O)CCCC2=O)c1=O (stereo not shown)")
-1
>>> cat("CCCn1c(-c2cccc(C(F)(F)F)c2)ncc(C(=O)C2=C(O)CCCC2=O)c1=O")
-1
>>> cat("COCCCn1c(-c2cccc(Br)c2)ncc(C(=O)C2=C(O)CCCC2=O)c1=O")
1
>>> cat("CCCCn1c(-c2cccc(Cl)c2)ncc(C(=O)C2=C(O)CCCC2=O)c1=O")
1
>>> cat("CCCCn1c(-c2cc(F)cc(F)c2)ncc(C(=O)C2=C(O)CCCC2=O)c1=O")
1
>>> cat("O=C(C1=C(O)C2CCC(C2)C1=O)c1cnc(-c2ccsc2)n(CC2CCCO2)c1=O (stereo not shown)")
1
>>> cat("O=C1CCCC(O)=C1C(=O)c1cnc(-c2cc(F)cc(F)c2)n(C2CCCCC2)c1=O")
-1
>>> cat("O=C1CCCC(O)=C1C(=O)c1cnc(-c2ccccc2)n(C2CCSCC2)c1=O")
-1
>>> cat("O=C1CCCC(O)=C1C(=O)c1cnc(-c2cccs2)n(C2CCCCC2)c1=O")
1
>>> cat("COCCn1c(-c2cccc(F)c2)ncc(C(=O)C2=C(O)CCCC2=O)c1=O")
-1
>>> cat("COCCn1c(-c2cccc(C)c2)ncc(C(=O)C2=C(O)C3CCC(C3)C2=O)c1=O (stereo not shown)")
1
>>> cat("COCCCn1c(-c2cccc(C)c2)ncc(C(=O)C2=C(O)CCCC2=O)c1=O")
1
>>> cat("O=C1CCCC(O)=C1C(=O)c1cnc(-c2ccccc2)n(C2CCCC2)c1=O")
1
